Aqueous slurry pH, Base 3 for assorted molecules
# protocol: Aqueous slurry pH (10% slurry, 25 C)
# Assay type: physicochemical
Answer field: number only, no words.

Some molecules with recorded Aqueous slurry pH, Base 3:
molecule	Aqueous slurry pH, Base 3
O=S(=O)([O-])[O-].[Ca+2] [Calcium Sulfate]	10.2
CC(=O)[O-].CC(=O)[O-].[Ca+2] [Calcium Acetate]	10.1
[Cl-].[Cl-].[Mg+2] [Magnesium Chloride]	10.0

Continue with the next molecule.
Look up and report measured Aqueous slurry pH, Base 3 for this entry: O=S(=O)([O-])[O-].[Mg+2] [Magnesium Sulfate]
10.2

* * *

# protocol: Aqueous slurry pH (10% slurry, 25 C)
# Type: physicochemical
Aqueous slurry pH, Base 1 for assorted compounds
Answer field: number only, no words.

Some compounds with recorded Aqueous slurry pH, Base 1:
compound	measured_result
N.N.N.O=P(O)(O)O [Ammonium Phosphate]	6.1
[Ca+2].[Cl-].[Cl-] [Calcium Chloride]	4.2
O=C([O-])[O-].[Ca+2] [Calcium Carbonate, reference compound]	7.0
[Ca+2].[OH-].[OH-] [Calcium Hydroxide, reference compound]	11.9

Continue with the next compound.
Look up and report measured Aqueous slurry pH, Base 1 for this entry: O=S(=O)([O-])[O-].[Na+].[Na+] [Sodium Sulfate, reference compound]
6.9
